B1: glmS ribozyme (parent)
chain: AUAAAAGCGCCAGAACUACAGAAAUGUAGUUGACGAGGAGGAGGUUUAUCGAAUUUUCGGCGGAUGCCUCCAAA

# Variants of: B1
# assay_explanation: self-cleavage kobs at 10000 uM GlcN6P; higher = faster cleavage; RNA array
# experimental_context: with glucosamine-6-phosphate
Fewer inactive variants are shown than the library holds.

{"construct_sequence": "AUAAAAGCGCCAGAACUACAGAAAUGUAGUUGACGAGGAUGAGGUUUAUCGAAUGUUCGGCGGAUGCCUCCAAA [G40U U55G]", "unit_of_measurement": "s⁻¹", "limit_operator": "=", "self-cleavage kobs at 10000 uM GlcN6P": 0.00228}
{"construct_sequence": "AUAAAAGCGCCUGAACUACAGAAAUGUAGGUGACGUGGAGUAGGUUUAUCGUAUUUUCGGCGGAUGCCUCCAAA [A12U U30G A36U G41U A52U]", "unit_of_measurement": "s⁻¹", "limit_operator": "<", "self-cleavage kobs at 10000 uM GlcN6P": "1e-05"}
{"construct_sequence": "AUAAAAACGCCAGAACUACAGAAAUGUAGUUGACGAGCAGGAGGUUUAUCGAAUUUUCGGCGGAUGCCUCCAAA [G7A G38C]", "unit_of_measurement": "s⁻¹", "limit_operator": "<", "self-cleavage kobs at 10000 uM GlcN6P": "1e-05"}
{"construct_sequence": "AUAAAAGCGCGAGAACUACAGAAAUGUAGAUGACGAGGAGGAGGUUUAUCGAAUUUGCGGCGGAUGCCUCCAAA [C11G U30A U57G]", "unit_of_measurement": "s⁻¹", "limit_operator": "<", "self-cleavage kobs at 10000 uM GlcN6P": "1e-05"}
{"construct_sequence": "AUAAAAGCGCCAGAACUACAGAAAUGUAGUUGACGAGGACUAGGUUUAUCGAAUUUUCGGCGGAUGCCUCCAAA [G40C G41U]", "unit_of_measurement": "s⁻¹", "limit_operator": "=", "self-cleavage kobs at 10000 uM GlcN6P": "6.61e-05"}
{"construct_sequence": "AUAAAAGCGCCAGUACUACAGAAAUGUAGUUGACGAGGAGGGGGUUUAUCGAAUUUUAGGCGGAUGCCUCCAAA [A14U A42G C58A]", "unit_of_measurement": "s⁻¹", "limit_operator": "=", "self-cleavage kobs at 10000 uM GlcN6P": 0.000409}
{"construct_sequence": "AUAAACGCGCCAGAACUACAGAAAUGUAGUUGACCAGGAGGAGGUUUAUCGCAUUUUCGGCGGAUUCCUCCAAA [A6C G35C A52C G66U]", "unit_of_measurement": "s⁻¹", "limit_operator": "<", "self-cleavage kobs at 10000 uM GlcN6P": "1e-05"}
{"construct_sequence": "AUAAAAGCGCCAGAACUACAGAAAUGUAGUUGACGAAGAGGCGGUUUAUCGAAUUUUCGGCGGAUGCCUCCAAA [G37A A42C]", "unit_of_measurement": "s⁻¹", "limit_operator": "=", "self-cleavage kobs at 10000 uM GlcN6P": "2.95e-05"}
{"construct_sequence": "AUAAAAGCGCCAGAACUACAGAAAUGUAGUUGACCAGGAGGAGGUUUAUCGAAUUCUCGGCGGAUGCCUCCAAA [G35C U56C]", "unit_of_measurement": "s⁻¹", "limit_operator": "<", "self-cleavage kobs at 10000 uM GlcN6P": "1e-05"}
{"construct_sequence": "AUAAAAGGGCCAGAACUACAGAAAUGUAGUUGACGAGGGGGAGGUUUAUCGAAUUUUCCGCGGAUGCCUCCAAA [C8G A39G G59C]", "unit_of_measurement": "s⁻¹", "limit_operator": "<", "self-cleavage kobs at 10000 uM GlcN6P": "1e-05"}
{"construct_sequence": "AUAAAAGCGCCAGAACUACAGAAAUGUAGUUAACGAGGAGGCGGUUUAUCGAAUUUUCGGCGGAUGCCUCCAAA [G32A A42C]", "unit_of_measurement": "s⁻¹", "limit_operator": "<", "self-cleavage kobs at 10000 uM GlcN6P": "1e-05"}
{"construct_sequence": "AUAAAAGCGCCGGAACUACAGAAAUGUAGUUGACGAGGAGGUGGUUUAUCGAAUUUUCGGCGGAUGCCACCAAA [A12G A42U U69A]", "unit_of_measurement": "s⁻¹", "limit_operator": "=", "self-cleavage kobs at 10000 uM GlcN6P": 0.00112}
{"construct_sequence": "AUAAAAGCGCCAGAACUACAGAAAUGUAGUUGACGAGGAUGAGGUUUACCGAAUUUUCGGCGGAUGCCUCCAAA [G40U U49C]", "unit_of_measurement": "s⁻¹", "limit_operator": "<", "self-cleavage kobs at 10000 uM GlcN6P": "1e-05"}
{"construct_sequence": "AUAAAGGCGCCAGAACUACAGAAAUGUAGUUGACGAGGAGGAGGUUUAUCGAAUUUUCGGCCGAUGCCUCCAAA [A6G G62C]", "unit_of_measurement": "s⁻¹", "limit_operator": "<", "self-cleavage kobs at 10000 uM GlcN6P": "1e-05"}
{"construct_sequence": "AUAAAAGCGCCAGAGCUACAGAAAUGUAGUUGACGAGGAGGGGGUUUAUCGAAUUUUCGGCGGAUGCUUCCAAA [A15G A42G C68U]", "unit_of_measurement": "s⁻¹", "limit_operator": "=", "self-cleavage kobs at 10000 uM GlcN6P": 0.0101}
{"construct_sequence": "AUAAAAGCGCGAGAACUACAGAAAUGUAGUUGACGAGGAGGAGGUUUAUAGUAUUUUCGGCGAAUGCCUCCAAA [C11G C50A A52U G63A]", "unit_of_measurement": "s⁻¹", "limit_operator": "<", "self-cleavage kobs at 10000 uM GlcN6P": "1e-05"}
{"construct_sequence": "AUAAAAGCGCCAUAACUACAGAAAUGUAGUUGACGAGGAGGAGGUUUAUCGAAUUUUUGGCGGAUGCCUCCAAA [G13U C58U]", "unit_of_measurement": "s⁻¹", "limit_operator": "=", "self-cleavage kobs at 10000 uM GlcN6P": "6.77e-05"}
{"construct_sequence": "AUAAAAGCGCCUGAACUACAGAAAUGUAGGUGACGAGGAGGAGGUUUAUCGAAUUGUCGGCGGAUGCCUCCAAA [A12U U30G U56G]", "unit_of_measurement": "s⁻¹", "limit_operator": "=", "self-cleavage kobs at 10000 uM GlcN6P": 0.0339}
{"construct_sequence": "AUAAAAGCGCCAGAACUACAGAAAUGUAGUUGACGAGGAGGAGGAUUAUCGAAUUUUCGGCGGAUGCCUGCAAA [U45A C70G]", "unit_of_measurement": "s⁻¹", "limit_operator": "=", "self-cleavage kobs at 10000 uM GlcN6P": 0.000826}
{"construct_sequence": "AUAAAAGCGCCAGAACUACAGAAAUGUAGUUGUCGAGGAGGAAGUUUAUCGAAUUUUCGGCGGAUGCCUCCAAA [A33U G43A]", "unit_of_measurement": "s⁻¹", "limit_operator": "<", "self-cleavage kobs at 10000 uM GlcN6P": "1e-05"}
{"construct_sequence": "AUAAAAGCGCCAGAAUUACAGAAAUGUAGUUGACGAGGCGGAGGUUUAUCGAAUUUUCGGCGGAUGCAUCCAAA [C16U A39C C68A]", "unit_of_measurement": "s⁻¹", "limit_operator": "<", "self-cleavage kobs at 10000 uM GlcN6P": "1e-05"}
{"construct_sequence": "AUAAAAGCGCCAGAACUACAGAAAUGUAGUUGACGAGGAGGGGGUUGAUCGAAUUUUCGGCGGAUGCCUCCAAA [A42G U47G]", "unit_of_measurement": "s⁻¹", "limit_operator": "=", "self-cleavage kobs at 10000 uM GlcN6P": 0.0143}
